These entries and their values trace back to paper PMC4127500.

Tested on: P. aeruginosa 6817
protocol_summary: Minimum inhibitory concentration
Format: cell-based
details: Pseudomonas aeruginosa, 6817

compound: CC1(C)S[C@@H]2[C@H](NC(=O)[C@H](N)c3ccccc3)C(=O)N2[C@H]1C(=O)O [AMP, Ampicillin]
target_system: P. aeruginosa 6817
MIC: 512 µg/mL
//
compound: CC1(C)S[C@@H]2[C@H](NC(=O)[C@H](N)c3ccc(O)cc3)C(=O)N2[C@H]1C(=O)O [AMX, Amoxicillin]
target_system: P. aeruginosa 6817
MIC: 512 µg/mL
//
compound: CO/N=C(\C(=O)N[C@@H]1C(=O)N2C(C(=O)O)=C(COC(C)=O)CS[C@H]12)c1csc(N)n1 [CTX, Cefotaxime]
target_system: P. aeruginosa 6817
MIC: 64 µg/mL
//
compound: CNC(C)C1CCC(N)C(OC2C(N)CC(N)C(OC3OCC(C)(O)C(NC)C3O)C2O)O1 (stereo not shown) [GEN, Gentamicin]
target_system: P. aeruginosa 6817
MIC: 32 µg/mL

----------
System: B. cereus 6591
protocol_summary: Minimum inhibitory concentration
Format: cell-based
details: Bacillus cereus, 6591
metric_name: MIC (µg/mL)

compound: CC1(C)S[C@@H]2[C@H](NC(=O)[C@H](N)c3ccc(O)cc3)C(=O)N2[C@H]1C(=O)O
unit_string: µg/mL
recorded_number: 256
//
compound: CNC(C)C1CCC(N)C(OC2C(N)CC(N)C(OC3OCC(C)(O)C(NC)C3O)C2O)O1 (stereo not shown)
unit_string: µg/mL
recorded_number: 32
//
compound: CO/N=C(\C(=O)N[C@@H]1C(=O)N2C(C(=O)O)=C(COC(C)=O)CS[C@H]12)c1csc(N)n1
unit_string: µg/mL
recorded_number: 64
//
compound: CC1(C)S[C@@H]2[C@H](NC(=O)[C@H](N)c3ccccc3)C(=O)N2[C@H]1C(=O)O
unit_string: µg/mL
recorded_number: 256

----------
MIC values for the compounds below.
Test system: E. coli 6881
protocol_summary: Minimum inhibitory concentration
Format: cell-based
details: Escherichia coli, 6881

compound: CNC(C)C1CCC(N)C(OC2C(N)CC(N)C(OC3OCC(C)(O)C(NC)C3O)C2O)O1 (stereo not shown) [GEN, Gentamicin]
MIC: 32 µg/mL
--
compound: CO/N=C(\C(=O)N[C@@H]1C(=O)N2C(C(=O)O)=C(COC(C)=O)CS[C@H]12)c1csc(N)n1 [CTX, Cefotaxime]
MIC: 64 µg/mL
--
compound: CC1(C)S[C@@H]2[C@H](NC(=O)[C@H](N)c3ccccc3)C(=O)N2[C@H]1C(=O)O [AMP, Ampicillin]
MIC: 128 µg/mL
--
compound: CC1(C)S[C@@H]2[C@H](NC(=O)[C@H](N)c3ccc(O)cc3)C(=O)N2[C@H]1C(=O)O [AMX, Amoxicillin]
MIC: 128 µg/mL

----------
MIC values for the compounds below.
Tested on: S. aureus 7314
protocol_summary: Minimum inhibitory concentration
Type: cell-based
details: S. aureus 7314; in the presence of dBLIP1 (128 µg.mL^−1)
metric_name: MIC (µg/mL)

compound: CC1(C)S[C@@H]2[C@H](NC(=O)[C@H](N)c3ccc(O)cc3)C(=O)N2[C@H]1C(=O)O
recorded_number: 32
--
compound: CO/N=C(\C(=O)N[C@@H]1C(=O)N2C(C(=O)O)=C(COC(C)=O)CS[C@H]12)c1csc(N)n1
recorded_number: 8
--
compound: CC1(C)S[C@@H]2[C@H](NC(=O)[C@H](N)c3ccccc3)C(=O)N2[C@H]1C(=O)O
recorded_number: 32
--
compound: CNC(C)C1CCC(N)C(OC2C(N)CC(N)C(OC3OCC(C)(O)C(NC)C3O)C2O)O1 (stereo not shown)
recorded_number: 8
